meta.source: ChEMBL document CHEMBL4024704

Target: Interleukin-8 receptors, CXCR1/CXCR2 (Homo sapiens) (UniProt P25025+P25024)
Assay: Inhibition of IL-8 interaction with CXCR1/CXCR2 in human PMN leukocytes assessed as reduction in leukocyte migration after 5 days in presence of Diff-Quick staining by matrigel based microscopic analysis
Assay type: cell-based
Settings: concentration not given here
measurementType: inhibition (%)
// return numeric value only (unit: %, not printed)

Consider the worked cases shown below.
>>> result("CCC(=O)c1cccc(CC(=O)O)c1Cl")
67
>>> result("Cc1cc(CC(C)C)ccc1CC(=O)NS(C)(=O)=O")
67
>>> result("C[C@@H](C(=O)NCCN1CCCC1)c1ccc(OS(=O)(=O)C(F)(F)F)cc1")
52

Moving on to the next molecule.
query: Consider the molecule shown here: C[C@@H](C(=O)NCCCN1CCCC1)c1ccc(OS(=O)(=O)C(F)(F)F)cc1 What is its recorded inhibition?
result: 51

* * *

System: A549
Test: Anticancer activity against human A549 cells after 24 hrs by cell titer 96 aqueous one solution based assay
Assay type: functional
Conditions: A549, 24 h
measurementType: IC50 (µM)
Give a bare numeral; the unit µM is implied.

query: Quick check: IC50 of Cc1cccc(-n2cc(CNc3ccccc3)ccc2=O)c1 ?
result: 130

* * *

Experiment: Elimination half life in healthy human at 801 mg
Format: ADME
Conditions: in vivo, read-out: beta t1/2 (converted)
measurementType: half-life (h)
Quick reminder: number only, in h, skip the unit.

query: Request the reported half-life associated with Cc1ccc(=O)n(-c2ccccc2)c1
result: 3

* * *

Biological target: Mitogen-activated protein kinase kinase kinase 5 (Homo sapiens, UniProt Q99683)
Sequence (Q99683 whole entry): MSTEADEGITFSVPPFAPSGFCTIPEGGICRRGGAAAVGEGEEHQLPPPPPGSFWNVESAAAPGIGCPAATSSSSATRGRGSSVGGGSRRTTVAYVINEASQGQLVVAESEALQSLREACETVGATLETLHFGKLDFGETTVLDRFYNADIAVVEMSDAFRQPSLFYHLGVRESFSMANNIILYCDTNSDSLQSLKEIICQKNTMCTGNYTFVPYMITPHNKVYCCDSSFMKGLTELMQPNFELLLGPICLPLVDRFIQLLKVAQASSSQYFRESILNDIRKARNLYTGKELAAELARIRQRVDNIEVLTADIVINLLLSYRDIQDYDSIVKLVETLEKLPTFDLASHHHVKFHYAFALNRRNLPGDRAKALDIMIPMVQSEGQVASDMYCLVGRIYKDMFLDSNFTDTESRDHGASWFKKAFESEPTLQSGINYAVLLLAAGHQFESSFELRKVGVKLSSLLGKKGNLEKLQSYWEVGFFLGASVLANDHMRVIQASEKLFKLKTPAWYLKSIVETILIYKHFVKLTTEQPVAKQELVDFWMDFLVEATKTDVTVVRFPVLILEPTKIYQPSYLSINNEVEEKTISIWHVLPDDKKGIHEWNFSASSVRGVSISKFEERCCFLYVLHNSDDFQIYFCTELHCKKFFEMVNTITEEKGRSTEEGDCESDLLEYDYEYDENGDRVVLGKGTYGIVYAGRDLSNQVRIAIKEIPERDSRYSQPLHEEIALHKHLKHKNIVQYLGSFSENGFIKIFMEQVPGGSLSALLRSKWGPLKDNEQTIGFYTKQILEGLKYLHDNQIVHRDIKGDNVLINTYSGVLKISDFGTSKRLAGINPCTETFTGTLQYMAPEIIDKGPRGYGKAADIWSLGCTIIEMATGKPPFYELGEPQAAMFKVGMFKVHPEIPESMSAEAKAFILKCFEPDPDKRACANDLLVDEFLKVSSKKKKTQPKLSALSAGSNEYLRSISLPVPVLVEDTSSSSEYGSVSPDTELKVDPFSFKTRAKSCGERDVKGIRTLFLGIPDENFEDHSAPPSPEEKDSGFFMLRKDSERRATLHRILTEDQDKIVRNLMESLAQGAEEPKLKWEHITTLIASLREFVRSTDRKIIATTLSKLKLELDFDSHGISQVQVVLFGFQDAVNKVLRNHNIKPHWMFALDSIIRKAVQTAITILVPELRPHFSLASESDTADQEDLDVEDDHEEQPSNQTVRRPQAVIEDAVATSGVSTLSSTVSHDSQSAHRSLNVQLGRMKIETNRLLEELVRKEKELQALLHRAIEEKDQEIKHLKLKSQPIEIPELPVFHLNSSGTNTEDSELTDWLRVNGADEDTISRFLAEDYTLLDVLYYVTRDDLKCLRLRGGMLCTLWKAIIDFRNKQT
Test: Inhibition of recombinant human ASK1 using STK3 peptide as substrate incubated for 30 mins followed by ATP addition measured for 3 hrs by TR-FRET assay
measurementType: pIC50
In plain terms, pIC50 is the concentration in mol/L turned into minus its base-10 logarithm.

query: // returns reported pIC50 for input CC(n1cnnc1-c1nc(NC(=O)c2cc(-n3cnc(C4CC4)c3)c(N3CCCCC3)cn2)cs1)C(F)(F)F (stereo unspecified)
result: 9.15
